Assay: physchem
Format: physicochemical
Conditions: 30 °C, pH 7.5, aqueous buffer
Assay readout: solubility

Please give measured solubility of the following entry: CC(C)CC(C#N)CC#N (racemic)
~60 mM
